target: T1, GST-Src SH2 domain (human, UniProt P12931 151-248); assay: fluorescence polarisation; Rhodamine B-labelled peptide in solution with SH2 domain; Beacon 2000; as previously described [40]; conditions: both partners purified
T1 construct: SH2 domain of Src; source: E. coli BL21, purified (glutathione sepharose, NAP-10)
Non-standard residues stand in square brackets, D forms with d. No end group written: not given here. pY = N[C@@H](Cc1ccc(OP(=O)(O)O)cc1)C(=O)O
Exercise: for every item that follows, state its recorded pKd.
One number for each entry, as −log10 of the molar value.

These solved cases illustrate the format of a correct answer.
So what does the record say about pKd for KEEG[pY]ELPYNP (not fully specified (N-terminus); also: Rhodamine B label, site not given here, p62DOK1 around Y398; source: synthetic peptide (FMOC chemistry), purified by LC/MS) [p62DOK1 (Y398) phosphopeptide KEEGpYELPYNP, Rhodamine B-labelled] ?
5.30

So what does the record say about pKd for GVSE[pY]ELPEDP (not fully specified (N-terminus); also: Rhodamine B label, site not given here, FGFR1 around Y463; also called FGFR1 pY-463; source: synthetic peptide (FMOC chemistry), purified by LC/MS) [FGFR1 (Y463) phosphopeptide GVSEpYELPEDP, Rhodamine B-labelled] ?
5.16

So what does the record say about pKd for NGLN[pY]IDLDLV (not fully specified (N-terminus); also: Rhodamine B label, site not given here, IRS-1 around Y1179; source: synthetic peptide (FMOC chemistry), purified by LC/MS) [IRS-1 (Y1179) phosphopeptide NGLNpYIDLDLV, Rhodamine B-labelled] ?
5.00

Here is the next item to consider.
So what does the record say about pKd for SPGE[pY]VNIEFG (also: Rhodamine B label, site not given here, IRS-1 around Y896; source: synthetic peptide (FMOC chemistry), purified by LC/MS) [IRS-1 (Y896) phosphopeptide SPGEpYVNIEFG, Rhodamine B-labelled] ?
5.66
